All figures here come from patent US20070179162A1.

Test: logP determination through HPLC (gradient method, acetonitrile/0.1% aqueous phosphoric acid)
Type: physicochemical

# MOLECULE, chromatographic logP
rows = [
    ("CC1CCC(c2c(-c3ncncc3Cl)c(Cl)nc3ncnn23)CC1 (stereo not shown)", 3.27),
]
